# TARGET OR SYSTEM: AaegOR71 (Aedes aegypti)
# Sequence (A0A3S7SHD4 1-415): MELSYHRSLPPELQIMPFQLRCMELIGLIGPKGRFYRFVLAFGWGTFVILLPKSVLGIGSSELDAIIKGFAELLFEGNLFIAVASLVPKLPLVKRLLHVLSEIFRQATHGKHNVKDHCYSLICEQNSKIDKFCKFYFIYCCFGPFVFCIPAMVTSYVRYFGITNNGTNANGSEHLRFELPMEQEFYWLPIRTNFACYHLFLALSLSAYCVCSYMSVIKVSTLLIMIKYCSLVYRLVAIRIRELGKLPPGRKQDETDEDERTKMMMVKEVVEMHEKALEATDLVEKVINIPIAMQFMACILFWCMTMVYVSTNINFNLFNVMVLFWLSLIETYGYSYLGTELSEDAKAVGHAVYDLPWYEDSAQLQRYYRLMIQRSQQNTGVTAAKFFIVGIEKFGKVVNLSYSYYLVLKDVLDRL
# Sequence (Q178U6 whole entry partner): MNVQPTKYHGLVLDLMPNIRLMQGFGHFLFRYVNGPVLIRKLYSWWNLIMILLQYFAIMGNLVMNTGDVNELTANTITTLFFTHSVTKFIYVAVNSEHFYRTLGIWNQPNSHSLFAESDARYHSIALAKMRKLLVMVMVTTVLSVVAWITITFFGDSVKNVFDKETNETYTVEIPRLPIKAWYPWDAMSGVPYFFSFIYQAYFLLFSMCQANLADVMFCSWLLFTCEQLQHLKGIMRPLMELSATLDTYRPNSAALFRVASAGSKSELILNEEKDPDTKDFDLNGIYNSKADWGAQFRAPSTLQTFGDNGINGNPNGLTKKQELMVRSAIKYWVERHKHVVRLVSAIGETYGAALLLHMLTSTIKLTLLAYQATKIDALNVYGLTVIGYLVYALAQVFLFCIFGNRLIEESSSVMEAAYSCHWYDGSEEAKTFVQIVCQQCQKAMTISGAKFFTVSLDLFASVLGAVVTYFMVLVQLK
# TEST PROTOCOL: Two-electrode voltage clamp of Xenopus laevis oocytes expressing AaegOR71/Orco (blends, unitary compounds, concentration-response)
# Assay type: cell-based
# EXPERIMENTAL PARAMETERS: Indoles 2 unitary compounds; oocyte 6
Catalogue of Raw Data (Response in nA) Oocyte 6 values

# MOLECULE, Raw Data (Response in nA) Oocyte 6
records = [
    ("c1ccc2ncccc2c1 [Quinoline]", 760),
    ("c1ccc2ncncc2c1 [Quinazoline]", 150),
    ("O=Cc1ccnc2ccccc12 [4-quinolinecarboxaldehyde, 4-Quinolinecarboxaldehyde]", 930),
    ("O=C1CCOc2ccccc21 [4-chromanone, 4-Chromanone]", 60),
    ("OCc1c[nH]c2ccccc12 [3-Indolemethanol]", 0),
    ("Nc1cccc2cnccc12 [5-Aminoisoquinoline]", 10),
    ("O=C1Cc2ccccc2N1 [Oxindole]", 10),
    ("c1ccc2nccnc2c1 [Quinoxaline]", 200),
    ("O=C1Nc2ccccc2C1=O [Isatin]", 0),
    ("Oc1cccc2[nH]ccc12 [4-Hydroxyindole]", 30),
    ("O=C(O)Cc1c[nH]c2ccccc12 [1H-Indole-3-acetic acid]", 60),
]
